Test: protein stability index of a GFP-peptide fusion (yeast GPS) (PSI 1-4); higher = more stable; sorted into four equal gates, so the index is relative within each strain
Settings: pdr5∆
protein stability index vs 3: at or above is true (1), below is false (0).

Solved cases (3 shown):
QGEEEELIALNLSEARL [RPB4]; true (1)
PDIVGHEFTLSFTYELK [BRR2]; false (0)
PEQYSDILLNERVWNIC [AAR2]; true (1)

For the next question, use this sequence.
Quick check: does KEKIKNNRQLPYLVANV [RPT5] have protein stability index greater than or equal to 3? true (1)

----------
Test: protein stability index of a GFP-peptide fusion (yeast GPS) (PSI 1-4); higher = more stable; sorted into four equal gates, so the index is relative within each strain
Conditions: doa10∆
Assign met to entries whose protein stability index meets or exceeds 3; assign not met to the rest.

Observe how each entry below is paired with its result.
FTLLDFKKQMQTIMKMG [SRP54]; not met
SGTAATGAASNQSSFNF [YOR098C/NUP1]; not met
PMTVKLVQLPKSAMDTF [POP3]; not met

Could you verify whether the entry GKKWFEVSQFLIENGAS [NAS6] shows protein stability index of no less than 3? not met

Textbook exercise: given the entry NGKEVPLAKIYLEENKS [MED1] , state whether its protein stability index is greater than or equal to 3. met

Can RVISEYYSRITLLRLNE [RPN5] be said to have protein stability index at or above 3? not met

Kindly determine if protein stability index recorded for SNLTIYPIYELLMSCPR [GRR1] is above or exactly 3. not met

Is protein stability index at least 3? Consider IIKYPVAFDNINTHIET [SNF2] not met

Threshold query (protein stability index >= 3) on FESSSSLPFLLRHMPLA [SSN2] not met

----------
Test: protein stability index of a GFP-peptide fusion (yeast GPS) (PSI 1-4); higher = more stable; sorted into four equal gates, so the index is relative within each strain
Conditions: doa10∆
READOUT_KIND: protein stability index

Example sequences with recorded protein stability index:
ETLNDTIERSLIEEEVE [YCS4]; 3.42
KGHKFNNTKAGRRKTWK [RPL15A]; 2.79
KNDSLEKTINDLQRTQT [YIL149C/MLP2]; 2.97
KLLDNIQEYQLCDNFNH [COR1]; 2.35
SYAVSPYAQKPLQGIFH [QCR8]; 2.51
KVIEEQLKHTKLALAEN [SMC4]; 1.89

Read the entry SQYSTMVNIGLHNLNEY [RGR1] and write its reported protein stability index. 1.16

----------
The entries below come with measured protein stability index values attached.
Assay: protein stability index of a GFP-peptide fusion (yeast GPS) (PSI 1-4); higher = more stable; sorted into four equal gates, so the index is relative within each strain
Conditions: pdr5∆
The answer should be written as a number, with no unit following it.

IKLDRWLMEGSYQKAWD [RPN12]; 2.8
TPNFDDVLKENNDADKG [RIP1]; 1.35
HRLLQRALFRQLKRWYW [RMP1]; 1.2
STGDYTFTIQLLKLTKV [YML103C/NUP188]; 2.92
VRMLASPMLYKVPDISS [BRR2]; 2.77

Answer with the recorded protein stability index of SEGFEPTFSTHAQLLLS [PRP8] only. 2.08

Annotate the sequence ENITNKVTEKVLTQLTA [CSI1] with its measured protein stability index. 2.22
